Reference source: paper PMC10786891

Some binders, each annotated with its measured pKd.
- assayed.target: T1, EsCas13d, nuclease-dead (Eubacterium siraeum, UniProt B0MS50, R295A;H300A;R849A;H854A)
- T1 sequence: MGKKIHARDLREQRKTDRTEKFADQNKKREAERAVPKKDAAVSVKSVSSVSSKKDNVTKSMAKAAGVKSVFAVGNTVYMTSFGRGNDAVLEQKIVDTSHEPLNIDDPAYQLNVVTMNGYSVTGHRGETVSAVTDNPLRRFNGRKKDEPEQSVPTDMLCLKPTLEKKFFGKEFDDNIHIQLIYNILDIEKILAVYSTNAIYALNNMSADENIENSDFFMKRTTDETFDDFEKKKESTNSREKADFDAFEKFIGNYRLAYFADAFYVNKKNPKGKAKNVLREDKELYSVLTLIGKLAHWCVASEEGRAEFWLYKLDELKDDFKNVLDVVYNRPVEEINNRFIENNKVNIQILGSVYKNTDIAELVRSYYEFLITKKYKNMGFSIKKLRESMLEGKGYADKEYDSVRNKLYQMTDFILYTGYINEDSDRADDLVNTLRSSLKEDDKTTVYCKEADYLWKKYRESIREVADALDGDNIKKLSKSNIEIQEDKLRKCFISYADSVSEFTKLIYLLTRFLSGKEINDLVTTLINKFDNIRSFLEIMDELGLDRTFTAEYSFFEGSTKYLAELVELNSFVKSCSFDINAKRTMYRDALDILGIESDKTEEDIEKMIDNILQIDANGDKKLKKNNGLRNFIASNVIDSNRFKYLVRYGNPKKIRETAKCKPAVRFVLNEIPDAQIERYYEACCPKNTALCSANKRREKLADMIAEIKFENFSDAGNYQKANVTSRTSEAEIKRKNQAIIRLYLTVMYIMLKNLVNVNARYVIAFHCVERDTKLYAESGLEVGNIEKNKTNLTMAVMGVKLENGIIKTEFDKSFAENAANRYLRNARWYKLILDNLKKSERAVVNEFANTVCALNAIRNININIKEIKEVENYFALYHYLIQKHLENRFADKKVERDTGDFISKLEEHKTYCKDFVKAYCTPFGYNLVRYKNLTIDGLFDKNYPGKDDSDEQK
- assay.remarks: crRNA (strand 1, pre-loaded); Mg2+; 40 mM Tris-HCl pH 7.5, 150 mM NaCl, 6 mM MgCl2, 1 mM DTT, 0.1% Tween-20, 0.2 mg/ml BSA; 25 C; 10 min per concentration, then washed
- measurement.context: tags: His6-TwinStrep-SUMO cleaved; N-terminal SNAP kept (SNAP-Surface 488); label: 3' end held by stalled T7 RNA polymerase
pKd: −log10 of the molar value.
measurement.kind: pKd

INSERT INTO assay_data (binder, measurement_kind, assay_result) VALUES
  ('target 1 G13C,A14U (mixed) RNA 1: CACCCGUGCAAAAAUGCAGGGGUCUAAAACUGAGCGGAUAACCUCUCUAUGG RNA 2: GGGAAUGGAUCCACAUCUACGAAUUCGUACCAUAGAGUCGUUAUCCGCUCACCGAGAUCGGAAGAGCACACGU', 'pKd', 7.88),
  ('target 3 U20C (mixed) RNA 1: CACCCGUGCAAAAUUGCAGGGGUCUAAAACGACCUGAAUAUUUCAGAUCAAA RNA 2: GGGAAUGGAUCCACAUCUACGAAUUCGUUUUCGAUCUGAAAUAUUCAGGUCUGCAGAUCGGAAGAGCACACGU', 'pKd', 7.20),
  ('target 1 MT 5''PFS GGC 3''PFS CAU (mixed) RNA 1: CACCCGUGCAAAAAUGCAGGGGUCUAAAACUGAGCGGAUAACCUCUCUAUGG RNA 2: GGGAAUGGAUCCACAUCUACGAAUUCGGCCCAUAGAGAGGUUAUCCGCUCACAUAGAUCGGAAGAGCACACGU', 'pKd', 7.80),
  ('target 1 C6G,A18U (mixed) RNA 1: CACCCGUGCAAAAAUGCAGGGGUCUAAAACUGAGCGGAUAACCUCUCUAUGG RNA 2: GGGAAUGGAUCCACAUCUACGAAUUCGUACCAUUGAGAGGUUAUCGGCUCACCGAGAUCGGAAGAGCACACGU', 'pKd', 7.54),
  ('target 2 MT 5''PFS GAA 3''PFS UCU (mixed) RNA 1: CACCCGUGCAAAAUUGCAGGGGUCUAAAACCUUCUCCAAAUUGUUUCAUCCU RNA 2: GGGAAUGGAUCCACAUCUACGAAUUCGAAAGGAUGAAACAAUUUGGAGAAGUCUAGAUCGGAAGAGCACACGU', 'pKd', 7.52),
  ('target 2 MT 5''PFS CCA 3''PFS CCU (mixed) RNA 1: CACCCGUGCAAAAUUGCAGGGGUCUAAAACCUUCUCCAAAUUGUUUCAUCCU RNA 2: GGGAAUGGAUCCACAUCUACGAAUUCCCAAGGAUGAAACAAUUUGGAGAAGCCUAGAUCGGAAGAGCACACGU', 'pKd', 8.31),
  ('target 1 insC 3'' of 20,insG 3'' of 10 (mixed) RNA 1: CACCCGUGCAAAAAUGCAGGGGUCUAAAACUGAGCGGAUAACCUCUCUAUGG RNA 2: GGGAAUGGAUCCACAUCUACGAAUUCGUACCACUAGAGAGGUUGAUCCGCUCACCGAGAUCGGAAGAGCACACGU', 'pKd', 7.87),
  ('target 1 U8G,A18G (mixed) RNA 1: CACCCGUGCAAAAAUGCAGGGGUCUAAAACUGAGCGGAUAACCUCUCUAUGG RNA 2: GGGAAUGGAUCCACAUCUACGAAUUCGUACCAUGGAGAGGUUAGCCGCUCACCGAGAUCGGAAGAGCACACGU', 'pKd', 7.18);
